B1: Hairpin Ribozyme (parent)
chain: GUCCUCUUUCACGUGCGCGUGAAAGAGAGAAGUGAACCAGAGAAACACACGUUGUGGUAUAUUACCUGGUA

Variants of: B1
Assay: self-cleavage, relative activity (ratio to wild type); higher = more cleavage; co-transcriptional
testReadout: self-cleavage

> print(dat)
    alteration  reportedmeasurement
 1   G27C A28U                0.138
 2   A30U G69A                0.146
 3   A30U A61C                0.069
 4   G15C A23C                0.868
 5   G15C A47U                0.142
 6    U9C G42C                0.264
 7   G29U A45G                0.136
 8   A47G U55G                0.139
 9   G57A U63A                0.131
10   G13A G19U                0.825
11   U14A G69C                0.337
